target-under-test: hM1 (human Muscarinic receptor subtype 1) (Homo sapiens, UniProt P11229)
Construct: expressed in transfected cells; host or cells: CHO cells (chinese hamster ovary cells, ATCC)
Sequence (P11229 1-460): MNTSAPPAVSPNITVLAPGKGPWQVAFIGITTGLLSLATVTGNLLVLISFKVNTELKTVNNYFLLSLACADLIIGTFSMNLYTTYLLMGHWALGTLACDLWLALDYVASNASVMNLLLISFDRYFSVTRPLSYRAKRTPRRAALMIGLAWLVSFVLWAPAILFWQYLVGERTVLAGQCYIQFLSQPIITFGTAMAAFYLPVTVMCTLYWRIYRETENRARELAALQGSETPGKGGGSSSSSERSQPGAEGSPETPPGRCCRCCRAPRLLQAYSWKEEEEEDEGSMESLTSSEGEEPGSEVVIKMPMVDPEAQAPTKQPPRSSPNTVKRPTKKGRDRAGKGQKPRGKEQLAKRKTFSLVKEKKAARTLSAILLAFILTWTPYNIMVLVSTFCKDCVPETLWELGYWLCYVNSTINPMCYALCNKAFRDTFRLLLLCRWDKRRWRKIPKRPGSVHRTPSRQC
assay-details: Human M1 calcium mobilization FLIPR assay
Assay type: cell-based
condition-info: CHO cells expressing hM1, FLIPR; read-out: hM1Emax
Hi! Could you tag entries with Emax below 90% as Fulfilled, and those at or above as Not fulfilled? Much appreciated.

Consider the following illustrative entries.
compound | classification
CCCCC1CCCN(C[C@@H]2CCCC[C@H]2NC(=O)c2ccc(CN(CC)CC)cc2)C1 (mixture of isomers) | Not fulfilled
CCOCC1CCCN(C[C@@H]2CCCC[C@H]2NC(=O)c2ccc(-c3cnco3)cc2)C1 (mixture of isomers) | Not fulfilled
O=C(N[C@H]1CCCC[C@@H]1CN1CCCCCC1)c1ccc(-n2cccn2)cc1 | Fulfilled
CCOC[C@@H]1CCCN(C[C@H]2CCCC[C@@H]2NC(=O)c2ccccc2)C1 | Fulfilled
O=C(N[C@H]1CCCC[C@@H]1CN1CCCC(c2ccccc2)C1)c1ccc(-n2cccn2)nc1 (stereo partly drawn) | Not fulfilled
CCOC[C@@H]1CCCN(C[C@H]2CCCC[C@@H]2NC(=O)C2CCCCC2)C1 | Fulfilled
O=C(N[C@H]1CCCC[C@@H]1CN1CCCCC1)c1ccc(-n2cccn2)nc1 | Fulfilled
C=CCOCC1CCCN(C[C@@H]2CCCC[C@H]2NC(=O)c2ccc(CN3CCN(C)CC3)cc2)C1 (mixture of isomers) | Fulfilled

Just wondering, is Emax of CCO[C@@H]1CCCN(C[C@H]2CCCC[C@@H]2NC(=O)c2cnccn2)C1 below 90%?
Fulfilled

Is it true that Emax reported for CCOC[C@@H]1CCCN(C[C@H]2CCCC[C@@H]2NC(=O)c2ccc3c(c2)OCCN3C)C1 is less than 90%?
Fulfilled

Strictly below 90%: is that where Emax of CCCCC1CCCN(C[C@@H]2CCCC[C@H]2NC(=O)CCc2ccc(Cl)cc2)C1 (mixture of isomers) sits?
Fulfilled

Problem: For the compound CCOC[C@@H]1CCCN(C[C@H]2CCCC[C@@H]2NC(=O)c2ccc(-n3cnnn3)cc2)C1 , is Emax under 90%?
Not fulfilled

Decide: Emax of C=CCO[C@@H]1CCCN(C[C@H]2CCCC[C@@H]2NC(=O)c2ccc(-n3cccn3)nc2)C1 strictly below 90%?
Not fulfilled

Lab log: compare recorded Emax with 90%; is it strictly lower for CCOC[C@@H]1CCCN(C[C@H]2CCCC[C@@H]2NC(=O)c2ccc(CNS(C)(=O)=O)cc2)C1 ?
Not fulfilled

Problem: For the compound CCOC[C@@H]1CCCN(C[C@H]2CCCC[C@@H]2NC(=O)C2CCc3ccccc3O2)C1 (stereo partly drawn) , is Emax under 90%?
Not fulfilled

---

target-under-test: hM1 (human Muscarinic receptor subtype 1) (Homo sapiens, UniProt P11229)
Construct: expressed in transfected cells; host or cells: CHO cells (chinese hamster ovary cells, ATCC)
assay-details: Human M1 calcium mobilization FLIPR assay
Type: cell-based
condition-info: CHO cells expressing hM1, FLIPR; read-out: hM1EC50
observed-property: pEC50
One number for each entry, as −log10 of the molar value.

molecule | observed-property | experimental-result
O=C(N[C@H]1CCCC[C@@H]1CN1CCCCCC1)c1ccc(-n2cccn2)cc1 | pEC50 | 6.89

Parameters: items (list). Returns: pEC50 for each item.
1. CCO[C@@H]1CCCN(C[C@H]2CCCC[C@@H]2NC(=O)c2cnccn2)C1
2. CCOC[C@@H]1CCCN(C[C@H]2CCCC[C@@H]2NC(=O)c2ccc3c(c2)OCCN3C)C1
3. O=C(N[C@H]1CCCC[C@@H]1CN1CCCC(c2ccccc2)C1)c1ccc(-n2cccn2)nc1 (stereo partly shown)

1. 5.82
2. 6.82
3. 6.41

# batch size: 5; output pEC50 per entry
1. CCOC[C@@H]1CCCN(C[C@H]2CCCC[C@@H]2NC(=O)c2ccc(CN(C(C)=O)C(C)=O)cc2)C1
2. CCOC[C@@H]1CCCN(C[C@H]2CCCC[C@@H]2NC(=O)C2CCc3ccccc3O2)C1 (stereo partly shown)
3. C=CCOC[C@@H]1CCCN(C[C@H]2CCCC[C@@H]2NC(=O)c2ccc(-n3ccnc3)nc2)C1
4. CCCCC1CCCN(C[C@@H]2CCCC[C@H]2NC(=O)c2ccc(CN(CC)CC)cc2)C1 (mixture of isomers)
5. C=CCO[C@@H]1CCCN(C[C@H]2CCCC[C@@H]2NC(=O)c2ccc(-n3cccn3)nc2)C1

6.99
7.26
8.30
6.99
7.48

Would you be so kind as to report pEC50 for each listed record?
1. CCOC[C@@H]1CCCN(C[C@H]2CCCC[C@@H]2NC(=O)c2cnc(C)cc2C)C1
2. CCOC[C@@H]1CCCN(C[C@H]2CCCC[C@@H]2NC(=O)c2cc3nc(C)cc(C)n3n2)C1
3. CCOC[C@@H]1CCCN(C[C@H]2CCCC[C@@H]2NC(=O)c2ccc(-n3cnnn3)cc2)C1
4. CCOC[C@@H]1CCCN(C[C@H]2CCCC[C@@H]2NC(=O)c2ccc(CNS(=O)(=O)C3CC3)cc2)C1

6.30
7.66
8.05
7.96

---

Provide the reported Emax of each item.
target-under-test: hM1 (human Muscarinic receptor subtype 1) (Homo sapiens, UniProt P11229)
Construct: expressed in transfected cells; host or cells: CHO cells (chinese hamster ovary cells, ATCC)
assay-details: Human M1 calcium mobilization FLIPR assay
Type: cell-based
condition-info: CHO cells expressing hM1, FLIPR; read-out: hM1Emax
Experimental: The compound activity in the present invention (EC50 or IC50) was measured using a 384 plate-based imaging assay that monitors drug induced intracellular Ca^2+ release in whole cells. […] Inhibition of hM3 and hM5 by compounds was determined by the decrease in fluorescent signal in response to 2 nM acetylcholine activation. […]

Provide Emax for all items below, preserving their order.
1. CCOC[C@@H]1CCCN(C[C@H]2CCCC[C@@H]2NC(=O)CNC(C)=O)C1
2. CCOC[C@@H]1CCCN(C[C@H]2CCCC[C@@H]2NC(=O)c2ccc(N3CCCC3)nc2)C1
3. CCOC[C@@H]1CCCN(C[C@H]2CCCC[C@@H]2NC(=O)c2ccc(CN(C(C)=O)C(C)=O)cc2)C1

["91%", "91%", "91%"]
